Values from patent US20180057604A1

Recorded Kd values for a group of binders are listed next.
# Measurement target: T1, cyno TfR extracellular domain (analogous construct to human TfR ecd) (cynomolgus monkey, UniProt Q5RDH6 87-760 (Pongo abelii entry))
# T1 construct: also called cynoTfR ecd
# T1 chain: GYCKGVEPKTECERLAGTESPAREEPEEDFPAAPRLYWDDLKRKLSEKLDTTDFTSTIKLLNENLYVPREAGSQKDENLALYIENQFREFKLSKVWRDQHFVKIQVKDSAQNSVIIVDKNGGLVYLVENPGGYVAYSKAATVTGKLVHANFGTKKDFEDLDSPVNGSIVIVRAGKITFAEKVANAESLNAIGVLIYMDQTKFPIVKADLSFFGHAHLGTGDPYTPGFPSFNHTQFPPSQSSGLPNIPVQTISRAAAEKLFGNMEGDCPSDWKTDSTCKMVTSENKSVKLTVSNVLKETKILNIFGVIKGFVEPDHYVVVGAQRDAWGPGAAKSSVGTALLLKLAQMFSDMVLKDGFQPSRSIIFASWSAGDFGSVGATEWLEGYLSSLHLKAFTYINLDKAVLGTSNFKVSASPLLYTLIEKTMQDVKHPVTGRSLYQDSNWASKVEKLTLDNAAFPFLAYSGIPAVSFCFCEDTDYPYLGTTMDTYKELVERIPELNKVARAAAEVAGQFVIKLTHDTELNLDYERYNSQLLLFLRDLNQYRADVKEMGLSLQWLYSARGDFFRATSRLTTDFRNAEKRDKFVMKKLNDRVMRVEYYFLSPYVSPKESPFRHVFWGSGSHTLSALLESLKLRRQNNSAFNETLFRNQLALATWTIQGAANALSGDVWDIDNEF
# Assay info: SPR, IgG;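 further: His-tagged TfR captured via immobilized anti-His antibody on a CM5 chip, antibody injected in 3-fold dilution series by single cycle kinetics, 1:1 Langmuir or steady-state fit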
Assay readout: Kd (nM)

• hu16F6.v1 (antibody, V domains shown, IgG; HC 71 V, 78 F) VH: EVQLVESGPGLVKPSETLSLTCTVSGNSITSEYAWNWIRQPPGKGLEWIGYISYSGTTSYNPSLKSRVTISVDTSKNQFSLKLSSVTAADTAVYYCARYGYGNPATRYFDVWGQGTLVTVSS VL: DIQMTQSPSSLSASVGDRVTITCRASKSISKYLAWYQQKPGKAPKLLLYSGSTLQSGVPSRFSGSGSGTDYTLTISSLQPEDFATYYCQQHNEYPWTFGQGTKVEIK = 199
• hu7A4.v12 (antibody, V domains shown, IgG) VH: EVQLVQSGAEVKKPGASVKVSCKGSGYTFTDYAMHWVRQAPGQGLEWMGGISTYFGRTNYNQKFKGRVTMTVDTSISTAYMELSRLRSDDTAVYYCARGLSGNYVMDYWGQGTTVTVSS VL: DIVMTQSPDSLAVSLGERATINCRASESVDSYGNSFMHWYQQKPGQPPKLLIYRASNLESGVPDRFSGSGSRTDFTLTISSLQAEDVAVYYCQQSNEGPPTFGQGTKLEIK = 2.09
• hu7A4.v10 (antibody, V domains shown, IgG) VH: EVQLVQSGAEVKKPGASVKVSCKGSGYTFTDYAMHWVRQAPGQGLEWMGGISTYFGRTNYNQKFKGRVTMTRDTSISTAYMELSRLRSDDTAVYYCARGLSGNYVMDYWGQGTTVTVSS VL: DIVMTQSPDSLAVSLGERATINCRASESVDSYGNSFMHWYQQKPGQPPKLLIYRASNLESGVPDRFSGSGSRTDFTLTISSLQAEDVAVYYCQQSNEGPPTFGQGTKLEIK = 0.505
